# TARGET_OF_ASSAY: recombinant human LTA4 hydrolase (rhLTA4H) (Homo sapiens, UniProt P09960)
# Construct: made in house; host or cells: Spodoptera frugiperda (Sf-9) cells, recombinant baculovirus (pFastBac1)
# Sequence (P09960 whole entry): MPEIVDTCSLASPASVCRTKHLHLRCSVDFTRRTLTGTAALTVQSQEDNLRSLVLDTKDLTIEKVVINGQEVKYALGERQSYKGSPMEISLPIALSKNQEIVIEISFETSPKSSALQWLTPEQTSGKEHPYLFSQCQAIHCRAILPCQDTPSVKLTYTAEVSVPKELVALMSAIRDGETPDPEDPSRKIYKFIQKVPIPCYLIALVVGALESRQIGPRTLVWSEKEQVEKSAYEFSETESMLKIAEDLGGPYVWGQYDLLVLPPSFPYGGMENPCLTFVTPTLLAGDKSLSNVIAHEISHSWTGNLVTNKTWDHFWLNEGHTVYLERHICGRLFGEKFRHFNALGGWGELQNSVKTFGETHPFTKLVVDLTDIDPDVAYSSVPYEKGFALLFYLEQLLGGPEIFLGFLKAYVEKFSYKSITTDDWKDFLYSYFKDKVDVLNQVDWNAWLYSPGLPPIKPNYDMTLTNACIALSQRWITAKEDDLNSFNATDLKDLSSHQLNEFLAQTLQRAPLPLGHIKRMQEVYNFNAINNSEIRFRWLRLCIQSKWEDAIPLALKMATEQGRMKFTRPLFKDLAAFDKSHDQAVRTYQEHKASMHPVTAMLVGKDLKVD
# METHOD_NOTES: Recombinant human LTA4 hydrolase assay for LTA4 hydrolase inhibitor activity
# Format: biochemical
# MEASUREMENT_PARAMETERS: rhLTA4H, LTA4 substrate, LTB4 by immunoassay; single determination or average; read-out: IC50
Classes (IC50): low-valued (below 30 nM), mid-valued (30 nM to below 100 nM), high-valued (100 nM or more)

{"columns": ["COMPOUND", "LABEL"],
 "data": [
  ["c1ccc(OC2CCN(Cc3ccc(Oc4nc5ncccc5s4)cc3)CC2)cc1", "low-valued"],
  ["CC(=O)N1C[C@@H]2C[C@H]1CN2Cc1ccc(Oc2nc3ccc(C)nc3s2)cc1", "high-valued"],
  ["NC(=O)N1CC2CN(CCc3ccc(Oc4nc5ncccc5s4)cc3)CC2C1 (centres unmarked)", "low-valued"],
  ["c1cnc2nc(Oc3ccc(OCCNC4CC4)cc3)sc2c1", "mid-valued"],
  ["CC(=O)N[C@H]1C[C@H]2CC[C@@H](C1)N2Cc1ccc(Oc2nc3nccc(C)c3s2)cc1", "low-valued"],
  ["Cc1ccnc2sc(Oc3ccc(CN4CCCCC4)cc3)nc12", "high-valued"],
  ["CC(C)(C)C1CCN(Cc2ccc(Oc3nc4ncc(Cl)cc4s3)cc2)CC1", "high-valued"],
  ["NC(=O)C1CCN(CCOc2ccc(Oc3nc4cccnc4s3)cc2)CC1", "high-valued"],
  ["O=C(O)C1CCN(CCOc2ccc(Oc3nc4cccnc4s3)cc2)CC1", "high-valued"],
  ["CN(C)C1CCN(Cc2ccc(Oc3nc4ncccc4s3)cc2)CC1", "high-valued"],
  ["c1cc2sc(Oc3ccc(CN4CCCCC4)cc3)nc2cn1", "high-valued"],
  ["CC(=O)N1C2CCC1CN(Cc1ccc(Oc3nc4ncccc4s3)cc1)C2", "low-valued"],
  ["c1ccc(C2CCN(CCc3ccc(Oc4nc5ncccc5s4)cc3)CC2)nc1", "low-valued"],
  ["CC(=O)N1CCCN(Cc2ccc(Oc3nc4ccncc4s3)cc2)CC1", "high-valued"],
  ["CC(=O)N1CCN(CCc2ccc(Oc3nc4ccncc4s3)cc2)CC1", "high-valued"],
  ["COCC(=O)NC1CCN(Cc2ccc(Oc3nc4ncc(C)cc4s3)cc2)CC1", "mid-valued"],
  ["OC1(c2ccccc2)CCN(CCOc2ccc(Oc3nc4ncccc4s3)cc2)CC1", "mid-valued"],
  ["CC(=O)N[C@H]1C[C@H]2CC[C@@H](C1)N2Cc1ccc(Oc2nc3ncc(F)cc3s2)cc1", "low-valued"],
  ["OCC1CCN(Cc2ccc(Oc3nc4ncccc4s3)cc2)CC1", "low-valued"],
  ["COCCCN(CCOc1ccc(Oc2nc3ncccc3s2)cc1)C1CC1", "mid-valued"],
  ["NC(=O)N1C[C@H]2CC[C@@H](C1)N2CCc1ccc(Oc2nc3cccnc3s2)cc1", "mid-valued"],
  ["Cc1ccnc2nc(Oc3ccc(CN4CCC(NC(=O)c5ccncc5)CC4)cc3)sc12", "mid-valued"],
  ["O=C1CCCN1C1CCN(Cc2ccc(Oc3nc4cccnc4s3)cc2)CC1", "high-valued"],
  ["OC1(c2cccc(C(F)(F)F)c2)CCN(Cc2ccc(Oc3nc4ncccc4s3)cc2)CC1", "low-valued"]
]}
